Method notes: Drug uptake in ip dosed rat brain after 1 hr
Assay type: ADME, organism-based
Condition info: read-out: Drug uptake
Quantity measured: concentration at 1 h (ng/g)
Numbers only, in ng/g.

For `CNC(=O)c1ccc(Oc2ccc3c(c2)CCN(C2CCC2)CC3)nc1` the compound record lists concentration at 1 h as 1660

----------
Method notes: Clearance in rat at 1 mg/kg, iv
Format: ADME, organism-based
Parameters: dose 1 mg/kg, route intravenous
Condition info: in vivo
Quantity measured: clearance (mL/min/kg)
Answers are plain numbers, in mL/min/kg.

[[record]]
compound_structure_string = "Cn1nc(-c2ccc(C(=O)N3CCC[C@H]3CN3CCCC3)cc2)ccc1=O"
unit_info = "mL/min/kg"
reported = 18


For the next question, use this molecule.
For `O=C(c1ccc(-c2ccc(=O)n(-c3ccc(F)cc3)n2)cc1)N1CCC[C@H]1CN1CCCC1` the molecule record lists clearance as 12

----------
Method notes: Metabolic stability in human liver microsomes assessed as half life
Format: ADME, Microsome
Quantity measured: half-life

[[record]]
compound_structure_string = "Cn1nc(-c2ccc(C(=O)N3CCC[C@H]3CN3CCCC3)cc2)ccc1=O"
reported = "> 40 min"


// input: 2 compounds below; output: half-life for each
1. C[C@@H]1CCCN1CCCOc1ccc(-c2ccc(=O)n(C)n2)cc1
2. O=C(c1ccc(-c2ccc(=O)n(-c3ccc(F)cc3)n2)cc1)N1CCC[C@H]1CN1CCCC1

output:
> 40 min
> 40 min
